System: SR
procedure_text: NCI tumour cell line growth inhibition, 48 h
Calls of active or inactive are those of the source. Rule as the data show it: active = GI50 up to about 1.1 µM and inactive = higher.
Outcome codes: active, inactive

In [3]: df
Out[3]:
                                   compound     class
0                            COC(=O)c1csnn1  inactive
1  C/C=C1\CN2CCC34c5ccccc5N(C)C35OCC4(C(=O)OC)C1CC25 (stereo not given)  inactive
2  COc1ccc(C(OCC2OC(n3ccc(NC(=O)c4ccccc4)nc3=O)C(O)C2O)(c2ccccc2)c2ccccc2)cc1 (stereo not given)  inactive
3  CC1(C)CCC[C@@]2(C)C1CC[C@@]1(CO1)[C@@H]2/C=C\C(C=O)CC=O (stereo not given in full)  inactive
4  O=C(Nc1ccn(C2CC(I)C(COC(c3ccccc3)(c3ccccc3)c3ccccc3)O2)c(=O)n1)c1ccccc1 (stereo not given)    active
5  Nc1c(C(=O)Nc2ccc([As](=O)(O)O)cc2)cnc2nnnn12  inactive
6   Cc1ccc(S(=O)(=O)N/N=c2/sc3ccccc3n2C)cc1  inactive
7              N#Cc1nc(Nc2cccc3ccccc23)sc1N  inactive
8  CCOC(=O)C1=CN/C(=C(/C)C(=O)OC)SC1C(=O)OCC (stereo not given)  inactive
9       Cc1ccc(/C=C2\N=C(N3CCCCC3)NC2=O)cc1  inactive
